Numbers sourced from ChEMBL document CHEMBL4342523.

# subjectOfTest: UniProtKB Q9NYW2
# experimentalDetails: Antagonist activity at recombinant human TAS2R8 stably expressed in cells co-expressing Galpha16gust44 assessed as inhibition of andrographolide-induced intracellular calcium level measured for 100 secs by fluo-4 dye based FLIPR assay
pIC50: −log10 of the molar value.
readoutName: pIC50

Check out these entries, answers already filled in.
INSERT INTO assay_data (molecule, subjectoftest, numericvalue) VALUES
  ('COC(=O)c1cccc(CN2CC(=O)N(c3cnn(Cc4c(C)noc4C)c3)C2=O)c1', 'UniProtKB Q9NYW2', 7.00),
  ('CNC(=O)c1cccc(CN2CC(=O)N(c3cnn(Cc4c(C)noc4C)c3)C2=O)c1', 'UniProtKB Q9NYW2', 7.00);

[1] Cc1noc(C)c1Cn1cc(N2C(=O)CN(Cc3ccccn3)C2=O)cn1
[2] Cc1noc(C)c1Cn1cc(N2C(=O)CN(Cc3ccccc3)C2=O)cn1
Could you tell me which of 1 and 2 has the lower pIC50 reading? Return value: the label identifying the chosen record.
1

[P] Cc1noc(C)c1Cn1cc(N2C(=O)N(Cc3cccc(O)c3)C(C)(C)C2=O)cn1
[Q] Cc1noc(C)c1Cn1cc(NC(=O)c2ccccc2O)cn1
Between P and Q , whose recorded pIC50 is greater? Return value: the label identifying the chosen record.
P

[A] Cc1noc(C)c1Cn1cc(N2C(=O)CN(Cc3cccc(O)c3)C2=O)cn1
[B] Cc1noc(C)c1Cn1cc(N2C(=O)CN(Cc3cccc(C(=O)O)c3)C2=O)cn1
Could you tell me which of A and B has the lower pIC50 reading? Return value: the label identifying the chosen record.
B
(B: 5.70, A: 7.70)

---

# experimentalDetails: Stability of the compound in pH 7.1 buffer assessed as parent compound remaining measured after 24 hrs at 100 degC
# Format: physicochemical
# statedConditions: read-out: Stability
readoutName: remaining at 24 h (%)

Check out these entries, answers already filled in.
INSERT INTO measurements (smi, readoutname, valueunits, numericvalue) VALUES
  ('Cc1noc(C)c1Cn1cc(N2C(=O)N(Cc3cccc(O)c3)C3(CCC3)C2=O)cn1', 'remaining at 24 h', '%', 98),
  ('Cc1noc(C)c1Cn1cc(N2C(=O)N(Cc3cccc(O)c3)C3(CC3)C2=O)cn1', 'remaining at 24 h', '%', 96);

[I] Cc1noc(C)c1Cn1cc(N2C(=O)CN(Cc3ccccc3)C2=O)cn1
[II] Cc1noc(C)c1Cn1cc(N2C(=O)[C@@H](C)N(Cc3cccc(O)c3)C2=O)cn1
Could you tell me which of I and II has the lower remaining at 24 h reading? Return value: the label identifying the chosen record.
I

---

# experimentalDetails: Solubility of the compound in pH 7.1 buffer measured after 24 hrs
# Assay type: physicochemical
readoutName: solubility at 24 h (µM)

Check out these entries, answers already filled in.
INSERT INTO results (compound, valueunits, numericvalue) VALUES
  ('Cc1noc(C)c1Cn1cc(N2C(=O)CN(Cc3ccccc3F)C2=O)cn1', 'µM', 51),
  ('Cc1noc(C)c1Cn1cc(N2C(=O)N(Cc3cccc(O)c3)C3(CCC3)C2=O)cn1', 'µM', 3),
  ('Cc1noc(C)c1Cn1cc(N2C(=O)[C@H](C)N(Cc3cccc(O)c3)C2=O)cn1', 'µM', 60),
  ('Cc1noc(C)c1Cn1cc(N2C(=O)c3ccccc3C2=O)cn1', 'µM', 12),
  ('Cc1noc(C)c1Cn1cc(N2C(=O)N(Cc3cccc(O)c3)C(C)(C)C2=O)cn1', 'µM', 72);

[a] Cc1noc(C)c1Cn1cc(N2C(=O)[C@@H](C)N(Cc3cccc(O)c3)C2=O)cn1
[b] Cc1noc(C)c1Cn1cc(N2C(=O)N(Cc3cccc(O)c3)C3(CC3)C2=O)cn1
[c] COc1ccccc1CN1CC(=O)N(c2cnn(Cc3c(C)noc3C)c2)C1=O
[d] Cc1noc(C)c1Cn1cc(N2C(=O)N(Cc3cccc(O)c3)C(C)(CO)C2=O)cn1 (stereo unspecified)
[e] Cc1noc(C)c1Cn1cc(N2C(=O)CN(Cc3cccc(O)c3)C2=O)cn1
With regard to solubility at 24 h, arrange the entries in ascending order, please. Write the labels in rank order as requested.
c, b, a, e, d
(c: 16 µM, b: 31 µM, a: 61 µM, e: 244 µM, d: 356 µM)

---

# subjectOfTest: Taste receptor type 2 member 8 (Homo sapiens, UniProt Q9NYW2)
# Sequence (Q9NYW2 whole entry): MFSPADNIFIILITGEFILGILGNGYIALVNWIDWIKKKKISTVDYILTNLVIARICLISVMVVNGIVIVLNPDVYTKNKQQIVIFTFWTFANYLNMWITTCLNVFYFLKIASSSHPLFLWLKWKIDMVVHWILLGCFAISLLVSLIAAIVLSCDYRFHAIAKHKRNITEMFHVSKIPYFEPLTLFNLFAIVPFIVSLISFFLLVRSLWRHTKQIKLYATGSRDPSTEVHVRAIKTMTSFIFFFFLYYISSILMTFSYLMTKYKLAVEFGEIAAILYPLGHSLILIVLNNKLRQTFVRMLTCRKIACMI
# experimentalDetails: Antagonist activity at recombinant human TAS2R8 stably expressed in cells co-expressing Galpha16gust44 assessed as inhibition of andrographolide-induced intracellular calcium level measured for 100 secs by fluo-4 dye based FLIPR assay
pIC50: −log10 of the molar value.
readoutName: pIC50

Check out these entries, answers already filled in.
INSERT INTO measurements (compound, readoutname, numericvalue) VALUES
  ('Cc1noc(C)c1Cn1cc(N2C(=O)CN(CC3CCCO3)C2=O)cn1 (configuration not stated)', 'pIC50', 6.00),
  ('COc1cccc(C(=O)Nc2cnn(Cc3c(C)noc3C)c2)c1', 'pIC50', 6.15),
  ('Cc1noc(C)c1Cn1cc(N2C(=O)CN(CC3CCCCC3)C2=O)cn1', 'pIC50', 6.52),
  ('Cc1noc(C)c1Cn1cc(N2C(=O)c3ccccc3C2=O)cn1', 'pIC50', 6.70),
  ('COc1ccc(OC)c(C(=O)Nc2cnn(Cc3c(C)noc3C)c2)c1', 'pIC50', 6.52);

[I] Cc1noc(C)c1Cn1cc(N2CCN(Cc3ccccc3)C2=O)cn1
[II] Cc1noc(C)c1Cn1cc(N2Cc3ccccc3C2=O)cn1
Could you tell me which of I and II has the lower pIC50 reading? Return value: the label identifying the chosen record.
II
